System: UV4
Protocol Text: The compound was tested for growth inhibition against UV4 tumor cell line(chinese hamster ovary).
Assay type: functional, cell-based, Cricetulus griseus
Condition Summary: Cricetulus griseus, UV4
Listed next: entries and their corresponding pIC50.
By convention, pIC50 is the negative base-10 log of a molar concentration.

Sample answers from the record:
{"columns": ["Compound", "Study System", "pIC50"],
 "data": [
  ["COc1cc(OCCN(C)C)c2[nH]c(C(=O)N3CC(CCl)c4c3cc(N)c3ccccc43)cc2c1 (centres undefined)", "UV4", 8.72],
  ["COc1ccc2[nH]c(C(=O)N3CC(CCl)c4c3cc(N)c3ccccc43)cc2c1 (centres undefined)", "UV4", 9.08],
  ["CCCC(=O)Nc1cc(/C=C/C(=O)N2CC(CCl)c3c2cc(N)c2ccccc32)n(C)c1 (centres undefined)", "UV4", 7.80],
  ["CC(=O)Nc1cc(/C=C/C(=O)N2CC(CCl)c3c2cc(N)c2ccccc32)n(C)n1 (centres undefined)", "UV4", 8.27],
  ["CN(C)CCOc1ccc2[nH]c(C(=O)N3CC(CCl)c4c3cc(N)c3ccccc43)cc2c1 (centres undefined)", "UV4", 8.77],
  ["CC(=O)Nc1cccc(/C=C/C(=O)N2CC(CCl)c3c2cc(N)c2ccccc32)c1 (centres undefined)", "UV4", 8.82]
]}

Item Nc1cc2c(c3ccccc13)C(CCl)CN2C(=O)c1cc2cc(NC(=O)c3cc4ccccc4o3)ccc2[nH]1 (centres undefined) ; assay system UV4; pIC50 reported as 8.82

Item CC(=O)Nc1ccc2[nH]c(C(=O)N3CC(CCl)c4c3cc(N)c3ccccc43)cc2c1 (centres undefined) ; assay system UV4; pIC50 reported as 8.12

Item CC(=O)Nc1cc(C(=O)Nc2cc(C(=O)N3CC(CCl)c4c3cc(N)c3ccccc43)nn2C)nn1C (centres undefined) ; assay system UV4; pIC50 reported as 6.60

----------
Listed next: entries and their corresponding pIC50.
Tested on: SK-OV-3
Protocol Text: Tested for growth inhibition against SKOV3 tumor cell line(human ovarian).
Assay type: functional, cell-based
Condition Summary: Homo sapiens, SK-OV-3
By convention, pIC50 is the negative base-10 log of a molar concentration.

Sample answers from the record:
{"columns": ["Compound", "Reported Result"],
 "data": [
  ["COc1cc2cc(C(=O)N3CC(COS(C)(=O)=O)c4c3cc(N)c3ccccc43)[nH]c2c(OC)c1OC (centres undefined)", 8.92],
  ["COc1ccc2[nH]c(C(=O)N3CC(CCl)c4c3cc(N)c3ccccc43)cc2c1 (centres undefined)", 8.73],
  ["COc1cccc(/C=C/C(=O)N2CC(CCl)c3c2cc(N)c2ccccc32)c1 (centres undefined)", 9.17]
]}

Could you now consider this next compound?
Value of pIC50 reported for the compound CC(=O)Nc1cccc(/C=C/C(=O)N2CC(CCl)c3c2cc(N)c2ccccc32)c1 (centres undefined) is 8.82

These measurements were taken from ChEMBL document CHEMBL1132178.
